Tested on: SF-295
Experimental details: Antitumor activity against human SF-295 cells assessed as growth inhibition at 10 uM relative to control
Assay type: functional
Condition: read-out: GI
Below, each entry is listed alongside its reported inhibition of growth at 10 µM.

Structure smiles	inhibition of growth at 10 µM
N#Cc1c(-c2ccc(Cl)cc2)nc(N/N=C/c2cccc(O)c2)nc1N1CCOCC1	< 1%
Cc1cc(C)n(-c2nc(-c3ccc(Cl)cc3)c(C#N)c(N3CCOCC3)n2)n1	< 1%
N#Cc1c(-c2ccc(Cl)cc2)[nH]c(=S)[nH]c1=O	< 1%
N#Cc1c(-c2ccc(Cl)cc2)nc(N/N=C/c2cccc(Cl)c2)nc1N1CCOCC1	< 1%
CSc1nc(O)c(C#N)c(-c2ccc(Cl)cc2)n1	< 1%
N#Cc1c(-c2ccc(Cl)cc2)nc(N/N=C/c2ccco2)nc1N1CCOCC1	26.2%
N#Cc1c(-c2ccc(Cl)cc2)nc(N/N=C/c2ccc[nH]2)nc1N1CCOCC1	41.6%
CSc1nc(-c2ccc(Cl)cc2)c(C#N)c(N2CCOCC2)n1	< 1%
N#Cc1c(-c2ccc(Cl)cc2)nc(N/N=C/c2cccc(Br)c2)nc1N1CCOCC1	< 1%
N#Cc1c(-c2ccc(Cl)cc2)nc(N/N=C2/C(=O)Nc3ccc(Br)cc32)nc1N1CCOCC1	< 1%
N#Cc1c(-c2ccc(Cl)cc2)nc(NN)nc1N1CCOCC1	< 1%
N#Cc1c(-c2ccc(Cl)cc2)nc(N/N=C/c2cccc(F)c2)nc1N1CCOCC1	< 1%
N#Cc1c(-c2ccc(Cl)cc2)nc(NN2C(=O)c3ccccc3C2=O)nc1N1CCOCC1	< 1%
N#Cc1c(-c2ccc(Cl)cc2)nc(N/N=C2/C(=O)Nc3ccccc32)nc1N1CCOCC1	< 1%
CC1=NN(c2nc(-c3ccc(Cl)cc3)c(C#N)c(N3CCOCC3)n2)C(=O)C1	< 1%
N#Cc1c(-c2ccc(Cl)cc2)nc(NN2C(=O)CCC2=O)nc1N1CCOCC1	< 1%
N#Cc1c(-c2ccc(Cl)cc2)nc(N/N=C/c2cccc([N+](=O)[O-])c2)nc1N1CCOCC1	< 1%
N#Cc1c(-c2ccc(Cl)cc2)nc(N/N=C2/C(=O)Nc3ccc(Cl)cc32)nc1N1CCOCC1	< 1%
CSc1nc(Cl)c(C#N)c(-c2ccc(Cl)cc2)n1	< 1%
N#Cc1c(-c2ccc(Cl)cc2)nc(N2NC(=O)CC2=N)nc1N1CCOCC1	< 1%
COc1cc(/C=N/Nc2nc(-c3ccc(Cl)cc3)c(C#N)c(N3CCOCC3)n2)cc(OC)c1OC	13.8%
